meta.source: paper PMC10911062

Biological target: Purine nucleoside phosphorylase (PfPNP) (Plasmodium falciparum)
Construct: gene PNP
Sequence (Q8I3X4 1-245): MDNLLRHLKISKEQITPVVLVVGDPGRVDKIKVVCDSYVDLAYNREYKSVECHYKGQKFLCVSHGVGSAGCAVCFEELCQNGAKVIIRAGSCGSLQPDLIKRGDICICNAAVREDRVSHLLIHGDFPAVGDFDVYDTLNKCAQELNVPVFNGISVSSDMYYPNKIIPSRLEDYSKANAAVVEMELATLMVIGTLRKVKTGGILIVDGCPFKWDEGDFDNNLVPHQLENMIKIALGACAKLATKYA
Experiment: xanthine oxidase-coupled inosine phosphorolysis assay
Format: biochemical
OBSERVATION TYPE: IC50 (µM)
Quick note: give the figure in µM, leave out the unit.

Ask: Query: IC50; subject: OC(c1cc(C(F)(F)F)nc2c(C(F)(F)F)cccc12)C1CCCCN1 (racemic) [mefloquine]
Reply: 327

----------
Target: Purine nucleoside phosphorylase (PfPNP) (Plasmodium falciparum, UniProt Q8I3X4)
Sequence (Q8I3X4 1-245): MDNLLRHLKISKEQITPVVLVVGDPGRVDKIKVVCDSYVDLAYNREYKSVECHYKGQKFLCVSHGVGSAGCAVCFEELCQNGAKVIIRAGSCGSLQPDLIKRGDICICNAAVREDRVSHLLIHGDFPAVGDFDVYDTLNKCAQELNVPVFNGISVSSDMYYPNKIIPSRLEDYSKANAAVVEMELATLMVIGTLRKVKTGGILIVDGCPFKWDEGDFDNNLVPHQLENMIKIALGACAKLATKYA
OBSERVATION TYPE: pKd
Note: pKd values are expressed as the negative base-10 logarithm of concentration in M.

Ask: Query: pKd; subject: OC(CNC1CCCC1)Cn1c2ccccc2c2ccccc21 (stereo not shown)
Reply: 5.82

----------
Biological target: Purine nucleoside phosphorylase (PfPNP) (Plasmodium falciparum, UniProt Q8I3X4)
Construct: gene PNP
Assay: xanthine oxidase-coupled inosine phosphorolysis assay
Type: biochemical
Conditions: read-out: IC50
OBSERVATION TYPE: IC50
A bare number is not enough; add the unit after it.

Ask: Query: IC50; subject: C=C[C@H]1C[N@@]2CC[C@H]1C[C@H]2[C@H](O)c1ccnc2ccc(OC)cc12
Reply: 11.3 µM
